The reported measurements were obtained from patent US20240018502A1.

Target: human complement protein C3 (human) (UniProt P01024)
Sequence (P01024 23-667, chain 1 of 2): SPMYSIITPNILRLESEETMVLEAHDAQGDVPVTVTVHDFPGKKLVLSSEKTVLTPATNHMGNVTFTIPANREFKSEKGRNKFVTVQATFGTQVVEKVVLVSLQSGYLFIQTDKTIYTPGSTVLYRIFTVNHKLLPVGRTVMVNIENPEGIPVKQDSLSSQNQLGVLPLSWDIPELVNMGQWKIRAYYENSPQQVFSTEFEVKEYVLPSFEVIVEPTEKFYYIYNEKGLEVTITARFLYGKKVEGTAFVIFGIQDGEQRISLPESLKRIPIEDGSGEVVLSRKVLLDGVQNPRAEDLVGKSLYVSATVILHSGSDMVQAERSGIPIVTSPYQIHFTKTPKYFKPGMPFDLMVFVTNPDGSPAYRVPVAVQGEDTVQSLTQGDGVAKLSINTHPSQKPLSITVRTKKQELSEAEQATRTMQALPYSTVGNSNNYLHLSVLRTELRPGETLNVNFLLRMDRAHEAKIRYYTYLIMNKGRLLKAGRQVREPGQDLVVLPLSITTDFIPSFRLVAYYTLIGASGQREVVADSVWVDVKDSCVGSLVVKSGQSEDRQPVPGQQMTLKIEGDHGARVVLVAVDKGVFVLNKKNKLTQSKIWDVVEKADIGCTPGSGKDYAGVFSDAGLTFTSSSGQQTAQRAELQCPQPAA
Sequence (P01024 672-1663, chain 2 of 2): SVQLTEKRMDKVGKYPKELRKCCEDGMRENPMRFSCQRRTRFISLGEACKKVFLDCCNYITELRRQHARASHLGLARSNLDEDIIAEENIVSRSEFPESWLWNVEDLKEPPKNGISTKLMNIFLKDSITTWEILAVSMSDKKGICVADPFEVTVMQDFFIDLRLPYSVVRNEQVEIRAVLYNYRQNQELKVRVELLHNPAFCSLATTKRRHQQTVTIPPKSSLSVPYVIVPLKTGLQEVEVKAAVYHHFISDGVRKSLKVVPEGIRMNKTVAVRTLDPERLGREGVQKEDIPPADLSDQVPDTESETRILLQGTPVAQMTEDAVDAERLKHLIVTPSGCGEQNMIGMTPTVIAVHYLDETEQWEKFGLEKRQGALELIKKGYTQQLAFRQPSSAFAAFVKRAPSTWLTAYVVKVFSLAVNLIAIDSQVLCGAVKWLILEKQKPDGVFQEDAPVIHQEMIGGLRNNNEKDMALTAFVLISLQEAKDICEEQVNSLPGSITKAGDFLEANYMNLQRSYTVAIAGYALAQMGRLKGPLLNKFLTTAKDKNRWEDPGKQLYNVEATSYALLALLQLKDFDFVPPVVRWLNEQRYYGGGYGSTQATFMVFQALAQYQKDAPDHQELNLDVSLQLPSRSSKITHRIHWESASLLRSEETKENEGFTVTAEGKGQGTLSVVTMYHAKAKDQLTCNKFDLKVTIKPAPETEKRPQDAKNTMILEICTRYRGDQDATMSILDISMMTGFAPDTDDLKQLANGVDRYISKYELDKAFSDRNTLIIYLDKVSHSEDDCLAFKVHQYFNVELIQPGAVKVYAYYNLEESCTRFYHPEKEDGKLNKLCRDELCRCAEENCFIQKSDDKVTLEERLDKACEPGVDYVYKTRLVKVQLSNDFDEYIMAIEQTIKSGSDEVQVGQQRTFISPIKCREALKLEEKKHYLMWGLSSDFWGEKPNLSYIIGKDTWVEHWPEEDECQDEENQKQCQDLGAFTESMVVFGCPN
Experiment: cell-based or functional assay
PARAMETER: EC50 (nM), cleavage of purified hC3 in vitro
I only need the number, in nM, no unit after it.

See these solved cases before continuing.
ins97aA/F97G/T98L/C122S/Q175M/Q192A/D217I/K224R (enzyme) VVGGTDADEGEWPWQVSLHALGQGHICGASLISPNWLVSAAHCYIDDRGFRYSDPTQWTAFLGLHDQSQRSAPGVQERRLKRIISHPFFNDGALFDYDIALLELEKPAEYSSMVRPISLPDASHVFPAGKAIWVTGWGHTQYGGTGALILQKGEIRVINQTTCENLLPQMITPRMMCVGFLSGGVDSCAGDSGGPLSSVEADGRIFQAGVVSWGIGCAQRNRPGVYTRLPLFRDWIKENTGV: 0.866
Q38H/I41A/D60bV/F60eR/Y60gW/F97D/F99L/C122S/G151H/Q175L/Q192D (enzyme) VVGGTDADEGEWPWQVSLHALGHGHACGASLISPNWLVSAAHCYIDVRGRRWSDPTQWTAFLGLHDQSQRSAPGVQERRLKRIISHPFFNDDTLDYDIALLELEKPAEYSSMVRPISLPDASHVFPAGKAIWVTGWGHTQYGGTHALILQKGEIRVINQTTCENLLPQLITPRMMCVGFLSGGVDSCDGDSGGPLSSVEADGRIFQAGVVSWGDGCAQRNKPGVYTRLPLFRDWIKENTGV: 3.72

q: For the binder Q38H/I41S/D60bT/F60eS/Y60gW/D96V/F97G/ins97aV/T98P/F99L/C122S/G151H/Q175L/Q192D (enzyme) VVGGTDADEGEWPWQVSLHALGHGHSCGASLISPNWLVSAAHCYIDTRGSRWSDPTQWTAFLGLHDQSQRSAPGVQERRLKRIISHPFFNVGVPLDYDIALLELEKPAEYSSMVRPISLPDASHVFPAGKAIWVTGWGHTQYGGTHALILQKGEIRVINQTTCENLLPQLITPRMMCVGFLSGGVDSCDGDSGGPLSSVEADGRIFQAGVVSWGDGCAQRNKPGVYTRLPLFRDWIKENTGV , report EC50 (nM), cleavage of purified hC3 in vitro.
a: 2.85

q: Look up and report measured EC50 (nM), cleavage of purified hC3 in vitro for this entry: I41G/F97I/F99L/C122S/G151L/Q175M/Q192S/D217V (enzyme) VVGGTDADEGEWPWQVSLHALGQGHGCGASLISPNWLVSAAHCYIDDRGFRYSDPTQWTAFLGLHDQSQRSAPGVQERRLKRIISHPFFNDITLDYDIALLELEKPAEYSSMVRPISLPDASHVFPAGKAIWVTGWGHTQYGGTLALILQKGEIRVINQTTCENLLPQMITPRMMCVGFLSGGVDSCSGDSGGPLSSVEADGRIFQAGVVSWGVGCAQRNKPGVYTRLPLFRDWIKENTGV
a: 2.84

q: Give the measured EC50 (nM), cleavage of purified hC3 in vitro for Q38Y/I41S/D60bT/Y60gW/D96M/F97N/T98G/F99L/C122S/G151N/Q175L/Q192D (enzyme) VVGGTDADEGEWPWQVSLHALGYGHSCGASLISPNWLVSAAHCYIDTRGFRWSDPTQWTAFLGLHDQSQRSAPGVQERRLKRIISHPFFNMNGLDYDIALLELEKPAEYSSMVRPISLPDASHVFPAGKAIWVTGWGHTQYGGTNALILQKGEIRVINQTTCENLLPQLITPRMMCVGFLSGGVDSCDGDSGGPLSSVEADGRIFQAGVVSWGDGCAQRNKPGVYTRLPLFRDWIKENTGV
a: 3.08

q: Give the reported value of EC50 (nM), cleavage of purified hC3 in vitro for this record: Q38H/I41S/D60bT/F60eS/Y60gW/ins97aV/T98P/F99L/C122S/G151H/Q175L/Q192E (enzyme) VVGGTDADEGEWPWQVSLHALGHGHSCGASLISPNWLVSAAHCYIDTRGSRWSDPTQWTAFLGLHDQSQRSAPGVQERRLKRIISHPFFNDFVPLDYDIALLELEKPAEYSSMVRPISLPDASHVFPAGKAIWVTGWGHTQYGGTHALILQKGEIRVINQTTCENLLPQLITPRMMCVGFLSGGVDSCEGDSGGPLSSVEADGRIFQAGVVSWGDGCAQRNKPGVYTRLPLFRDWIKENTGV
a: 3.19

q: Return value of EC50 (nM), cleavage of purified hC3 in vitro for input Q38H/I41S/D60bF/F60eT/ins97aV/F97D/T98P/F99L/C122S/H143Q/G151N/Q175L/Q192G (enzyme) VVGGTDADEGEWPWQVSLHALGHGHSCGASLISPNWLVSAAHCYIDFRGTRYSDPTQWTAFLGLHDQSQRSAPGVQERRLKRIISHPFFNDDVPLDYDIALLELEKPAEYSSMVRPISLPDASHVFPAGKAIWVTGWGQTQYGGTNALILQKGEIRVINQTTCENLLPQLITPRMMCVGFLSGGVDSCGGDSGGPLSSVEADGRIFQAGVVSWGDGCAQRNKPGVYTRLPLFRDWIKENTGV , no commentary.
a: 3.07
